experiment: qHTS profiling of the MIPE4 collection as inhibitors of Plasmodium falciparum (DD2) proliferation (Rep 2) (AID 743346); details: P. falciparum Dd2 in erythrocytes, SYBR Green DNA, 72 h; at 28.5 µM unless noted
MEASURE NAME: parasite growth, % of control (lower = inhibition) (%)
Number in %, nothing else.

QUERY: # query: parasite growth, % of control (lower = inhibition) of entry CC(C)C(C)C=CC(C)C1CCC2C3=CC=C4CC(O)CCC4(C)C3CCC21C (centres undefined)
RESULT: 92.8

QUERY: And CC=C(C)C(=O)O[C@H]1C(C)=C[C@]23C(=O)[C@@H](C=C(CO)[C@@H](O)[C@]12O)[C@H]1[C@@H](C[C@H]3C)C1(C)C ?
RESULT: 28.1

QUERY: And Oc1ccc(C2CCN(c3ccnc4ccccc34)CC2)cc1O ?
RESULT: 11.6

QUERY: And Cc1nnc(C(C)C)n1C1C[C@H]2CC[C@@H](C1)N2CC[C@H](NC(=O)C1CCC(F)(F)CC1)c1ccccc1 (some centres undefined) ?
RESULT: 55.4

QUERY: And Cc1nc(N)sc1-c1ccnc(Nc2ccc(N3CCOCC3)cc2)n1 ?
RESULT: 16.4

QUERY: And O=C(NC1CCOCC1)c1ccc(-c2cc(-c3cn[nH]c3-c3ccccn3)ccn2)cc1 ?
RESULT: 40.9

QUERY: And COc1cc2nc(-c3ccc(N4CCN(C)CC4)cc3)nc(NCCN3CCOCC3)c2cc1OC ?
RESULT: 12.1

QUERY: And CC(=O)N(C)C1(c2ccccc2)CCN(CCC[C@]2(c3ccc(Cl)c(Cl)c3)CCCN(C(=O)c3ccccc3)C2)CC1 ?
RESULT: 38.7

QUERY: And CC1(C)CCC(CN2CCN(c3ccc(C(=O)NS(=O)(=O)c4ccc(NCC5CCOCC5)c([N+](=O)[O-])c4)c(Oc4cnc5[nH]ccc5c4)c3)CC2)=C(c2ccc(Cl)cc2)C1 ?
RESULT: 24.1

QUERY: And N#Cc1ccc(NC(=O)Nc2ccccc2Br)c2n[nH]nc12 ?
RESULT: 21.8

QUERY: And N#CC(=C(N)Sc1ccccc1N)C(C#N)=C(N)Sc1ccccc1N ?
RESULT: 10.6

QUERY: And COc1cccc2c1CCCC2CCCN1CCN(C2CCCCC2)CC1 (centres undefined) ?
RESULT: 16.3

QUERY: And CC(C)OC(=O)CCCC=CC[C@@H]1[C@H](C=C[C@@H](O)COc2cccc(C(F)(F)F)c2)[C@H](O)C[C@@H]1O ?
RESULT: 33.1

QUERY: And COCCOC(=O)C1=C(C)NC2=C(C(=O)CC(c3ccccc3OC)C2)C1c1cccc(O)c1 (centres undefined) ?
RESULT: 51.8

QUERY: And Cc1ccc(F)c(NC(=O)Nc2ccc(-c3cccc4[nH]nc(N)c34)cc2)c1 ?
RESULT: 13.4

QUERY: And COC(=O)C1=CO[C@@H](O)[C@@H]2C(CO)=CC[C@@H]12 ?
RESULT: 98.4

QUERY: And COc1ccc(Cc2ccc(NC(N)=O)cc2)cc1-c1cccc(Cl)c1 ?
RESULT: 38.4

QUERY: And O=c1cc(-c2ccccc2)oc2cc(O)c(O)c(O)c12 ?
RESULT: 28.3

QUERY: And CC(C)(C)NC(=O)Nc1cccc(Nc2ncc(F)c(NC(C)(C)CO)n2)c1 ?
RESULT: 7.73

QUERY: And OC[C@H]1O[C@@H](n2cnc3c2NC=NC[C@@H]3O)C[C@H]1O ?
RESULT: 146

QUERY: And C[N+](C)(C)CC(=O)O ?
RESULT: 93.5

QUERY: And O=C(Nc1ccccc1Br)N[C@@H]1CCN(c2ccc(C(F)(F)F)cn2)C1 ?
RESULT: 82.5

QUERY: And O=C(CCN1CCN(C(=O)OCc2cc(Cl)cc(Cl)c2)CC1)c1ccc2[nH]c(=O)oc2c1 ?
RESULT: 85

---

experiment: Quantitative High-Throughput drug screen in 47 multiple myeloma cell lines against the NCATS MIPE library collection: JJN3_DSMZ cell viability assay (AID 1918966; note: nearly all actives have a fitted effect of over 50% in size); conditions: JJN3 myeloma cells viability, CellTiter-Glo ATP, 48 h; series mostly up to 45.8 µM
Records with an inconclusive call do not appear. Calls of active or inactive are those of the source. Calls follow the shape of the dose curve; as a rule, active = well fitted cell-killing curve with a large enough effect; inconclusive = small, poorly fitted or top-dose-only effect, or effect the other way; inactive = no such curve, though single readings can be large or run the other way.
Reply using exactly one outcome from y = active, n = inactive

QUERY: In this assay, the call recorded for CC(C)(Cc1ccc2ccccc2c1)NC[C@@H](O)COc1cccc(Cl)c1C#N was what?
RESULT: y

QUERY: And CC(C)=CC[C@@H](O)C1=CC(=O)c2c(O)ccc(O)c2C1=O ?
RESULT: y

QUERY: And CC1(C)CCC[C@@]2(C)[C@@H]1CC[C@@]1(C)OC(=O)C[C@H]21 ?
RESULT: n

QUERY: And O=C1c2ccccc2-[n+]2ccc3c([nH]c4ccccc43)c21 ?
RESULT: y

QUERY: And O=C(CCCCCCC(=O)Nc1ccccc1)NO ?
RESULT: y

QUERY: And CO[C@@H](C(=O)N1Cc2[nH]nc(NC(=O)c3ccc(N4CCN(C)CC4)cc3)c2C1)c1ccccc1 ?
RESULT: y

QUERY: And COC(=O)N[C@H](C(=O)N1CCC[C@@H]1c1ncc(-c2ccc(-c3ccc(-c4cnc([C@@H]5CCCN5C(=O)[C@@H](NC(=O)OC)C(C)C)[nH]4)cc3)cc2)[nH]1)C(C)C ?
RESULT: y

QUERY: And CCCCCNC(=O)N1CCC(CN(Cc2ccc(Cl)cc2)Cc2ccc([N+](=O)[O-])s2)C1 (stereo not drawn) ?
RESULT: y

QUERY: And Clc1ccc(C(c2ccc(Cl)cc2)n2cc[n+](CC(OCc3ccc(Cl)cc3Cl)c3ccc(Cl)cc3Cl)c2)cc1 (stereo not drawn) ?
RESULT: y

QUERY: And COc1ccc(-c2coc3cc(O)cc(O)c3c2=O)cc1 ?
RESULT: n

QUERY: And COC(=O)C1=CO[C@@H](O)[C@@H]2C(CO)=CC[C@@H]12 ?
RESULT: y

QUERY: And CC=CCC=CCCC(=O)[C@H]1O[C@@H]1C(N)=O ?
RESULT: y

QUERY: And CC(C)n1nc(-c2ccc3oc(N)nc3c2)c2c(N)ncnc21 ?
RESULT: y

---

test system: UISO; assay: qHTS assay to identify novel small-molecules to repurpose for Merkel cell carcinoma treatment (AID 1296009); conditions: MCC and control cell lines, CellTiter-Glo viability, 72 h; series mostly up to 46 µM; note: nearly all actives have a fitted effect of over 60% in size
Records with an inconclusive call do not appear. Activity calls are given as the source filed them. Calls come from the whole dose curve; as a rule, active = well fitted inhibition curve with a large enough effect; inconclusive = small, poorly fitted or top-dose-only effect; inactive = flat fitted curve, though single readings scatter.
Reply using exactly one outcome from active, inactive

QUERY: In this assay, the call recorded for C[N+](C)(C)CCCCCC[N+](C)(C)C was what?
RESULT: inactive

QUERY: And COc1cc(NC(=O)c2ccc(-c3ccc(Cl)cc3)o2)cc(OC)c1 ?
RESULT: inactive

QUERY: And CS(=O)c1ccc(-c2nc(-c3ccc(F)cc3)c(-c3ccncc3)[nH]2)cc1 (centres undefined) ?
RESULT: inactive

QUERY: And COc1cc2c(cc1OC)CN(CCc1ccc(NC(=O)c3cc(OC)c(OC)cc3NC(=O)c3cnc4ccccc4c3)cc1)CC2 ?
RESULT: inactive

QUERY: And CCCCCCCCCCCC1=C(O)C(=O)C=C(O)C1=O ?
RESULT: inactive

QUERY: And CO[C@@H](C(=O)N1Cc2[nH]nc(NC(=O)c3ccc(N4CCN(C)CC4)cc3)c2C1)c1ccccc1 ?
RESULT: inactive

QUERY: And Clc1ccc(-c2nc3sccn3c2C=NOCc2ccc(Cl)c(Cl)c2)cc1 ?
RESULT: inactive

QUERY: And CON=C(C(=O)N[C@@H]1C(=O)N2C(C(=O)OCOC(=O)C(C)(C)C)=C(C=Cc3scnc3C)CS[C@H]12)c1csc(N)n1 ?
RESULT: inactive

QUERY: And CC[C@H]1OC(=O)[C@H](C)[C@@H](O[C@H]2C[C@@](C)(OC)[C@@H](O)[C@H](C)O2)[C@H](C)[C@@H](O[C@@H]2O[C@H](C)C[C@H](N(C)C)[C@@H]2O)[C@](C)(O)C[C@@H](C)CN(C)[C@H](C)[C@@H](O)[C@]1(C)O ?
RESULT: inactive

QUERY: And CC1CCC(C(=O)N(c2cc(C#CC(C)(C)C)sc2C(=O)O)C2CCC(O)CC2)CC1 (centres undefined) ?
RESULT: inactive

QUERY: And CC(=O)O[C@]1(C(C)=O)CC[C@@H]2[C@@H]3C[C@H](C)C4=CC(=O)CC[C@]4(C)[C@H]3CC[C@@]21C ?
RESULT: inactive

QUERY: And COc1ncc(-c2ccc3nccc(-c4ccnnc4)c3c2)cc1NS(=O)(=O)c1ccc(F)cc1F ?
RESULT: active

QUERY: And O=c1cc(-c2cccc3c2Sc2ccccc2S3)oc(N2CCOCC2)c1 ?
RESULT: inactive

QUERY: And CCOC1OC(=O)C[C@H]1NC(=O)[C@@H]1CCCN1C(=O)[C@@H](NC(=O)c1ccc(N)c(Cl)c1)C(C)(C)C (some centres undefined) ?
RESULT: inactive
